Biological target: Recombinant human FGFR1 (Homo sapiens)
Sequence (P11362 22-822): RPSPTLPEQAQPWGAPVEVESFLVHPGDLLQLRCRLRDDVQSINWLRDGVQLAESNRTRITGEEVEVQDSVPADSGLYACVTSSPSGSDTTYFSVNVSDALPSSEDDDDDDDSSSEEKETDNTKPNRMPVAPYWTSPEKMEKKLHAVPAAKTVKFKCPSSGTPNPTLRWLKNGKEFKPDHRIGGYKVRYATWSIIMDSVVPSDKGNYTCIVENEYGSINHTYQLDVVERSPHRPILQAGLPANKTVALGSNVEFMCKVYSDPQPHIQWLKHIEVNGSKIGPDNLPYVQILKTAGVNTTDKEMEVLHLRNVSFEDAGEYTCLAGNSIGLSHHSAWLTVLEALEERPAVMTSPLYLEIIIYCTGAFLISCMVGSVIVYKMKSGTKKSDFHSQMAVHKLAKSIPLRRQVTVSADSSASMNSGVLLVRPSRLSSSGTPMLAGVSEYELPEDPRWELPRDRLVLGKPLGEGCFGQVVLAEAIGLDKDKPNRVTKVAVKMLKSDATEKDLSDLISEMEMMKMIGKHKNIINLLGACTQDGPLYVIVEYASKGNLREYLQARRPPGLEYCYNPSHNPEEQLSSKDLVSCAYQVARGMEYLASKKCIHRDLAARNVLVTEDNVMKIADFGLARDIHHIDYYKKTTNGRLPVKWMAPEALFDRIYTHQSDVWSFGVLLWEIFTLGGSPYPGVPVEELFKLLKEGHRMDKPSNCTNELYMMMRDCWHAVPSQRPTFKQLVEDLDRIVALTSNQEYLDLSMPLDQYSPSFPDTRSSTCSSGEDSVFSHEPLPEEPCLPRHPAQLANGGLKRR
Assay: Transcreener Kinase Assay of FGFR1
Format: biochemical
Conditions: FP
pIC50: −log10 of the molar value.
property.name: pIC50

CNC(=O)c1cc(OC)c(Cl)c(COc2cnc(Nc3ccc(N4C[C@@H](C)N[C@@H](C)C4)nc3)nc2)c1F [Compound 291]	7.77

[a] CCN1CCC(c2ccc(Nc3ncc(OCc4cc(C(=O)NC)cc(OC)c4F)cn3)cc2OC)CC1 [Compound 280]
[b] CNC(=O)c1cc(COc2cnc(Nc3cnc(N4C[C@@H](C)N[C@@H](C)C4)c(C)c3)nc2)c(Cl)c(OC)c1 [Compound 287]
// query Hi, I'm comparing a with b and wondering which one has the bigger number for pIC50. Any idea? Refer to your chosen item by its label in the answer.
// result b

---

Target: FGFR3 kinase (Homo sapiens, UniProt P22607)
Sequence (P22607 23-806): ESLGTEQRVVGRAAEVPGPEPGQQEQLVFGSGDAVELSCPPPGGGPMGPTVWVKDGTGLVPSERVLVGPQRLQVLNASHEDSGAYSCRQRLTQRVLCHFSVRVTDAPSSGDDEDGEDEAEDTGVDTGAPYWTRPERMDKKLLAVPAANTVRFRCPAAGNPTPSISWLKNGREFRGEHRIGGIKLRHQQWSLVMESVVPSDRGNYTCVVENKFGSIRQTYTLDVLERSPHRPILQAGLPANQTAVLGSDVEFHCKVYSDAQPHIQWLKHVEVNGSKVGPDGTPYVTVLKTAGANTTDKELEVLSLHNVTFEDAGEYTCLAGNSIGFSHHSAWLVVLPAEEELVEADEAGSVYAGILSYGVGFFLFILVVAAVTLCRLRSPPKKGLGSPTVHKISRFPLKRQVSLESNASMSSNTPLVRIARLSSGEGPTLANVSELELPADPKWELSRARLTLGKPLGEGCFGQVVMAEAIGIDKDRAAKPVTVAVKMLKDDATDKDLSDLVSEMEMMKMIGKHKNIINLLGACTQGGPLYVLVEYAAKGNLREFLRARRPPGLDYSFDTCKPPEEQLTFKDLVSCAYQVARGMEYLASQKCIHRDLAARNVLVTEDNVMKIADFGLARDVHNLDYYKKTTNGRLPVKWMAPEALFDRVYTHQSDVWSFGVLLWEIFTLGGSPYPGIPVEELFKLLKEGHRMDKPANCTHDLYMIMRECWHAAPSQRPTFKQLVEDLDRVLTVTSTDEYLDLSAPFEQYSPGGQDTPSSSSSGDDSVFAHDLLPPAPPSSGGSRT
Experiment: Z-Lyte Kinase Assay of FGFR3
Format: biochemical
pIC50: −log10 of the molar value.
property.name: pIC50

CNC(=O)c1cc(COc2cnc(Nc3cnc(N4C[C@@H](C)N[C@@H](C)C4)nc3)nc2)c(Cl)c(OC)c1	7.68
CNC(=O)c1cc(COc2cnc(Nc3cnn(C[C@@H]4COC(C)(C)O4)c3)nc2)c(F)c(OC)c1	7.85

[P] CNC(=O)c1cc(COc2cnc(Nc3ccc(N4C[C@@H](C)N(C)[C@@H](C)C4)nc3)nc2)c(F)c(OC)c1
[Q] CNC(=O)c1cc(COc2cnc(Nc3ccc(OC)c(N4CCN(C)CC4)c3)nc2)c(F)c(OC)c1
// query Hey, which is lower on measured pIC50, P or Q ? Refer to your chosen item by its label in the answer.
// result P
(P: 7.70, Q: 8.10)

---

Target: Recombinant human FGFR2 (Homo sapiens, UniProt P21802)
Sequence (P21802 22-821): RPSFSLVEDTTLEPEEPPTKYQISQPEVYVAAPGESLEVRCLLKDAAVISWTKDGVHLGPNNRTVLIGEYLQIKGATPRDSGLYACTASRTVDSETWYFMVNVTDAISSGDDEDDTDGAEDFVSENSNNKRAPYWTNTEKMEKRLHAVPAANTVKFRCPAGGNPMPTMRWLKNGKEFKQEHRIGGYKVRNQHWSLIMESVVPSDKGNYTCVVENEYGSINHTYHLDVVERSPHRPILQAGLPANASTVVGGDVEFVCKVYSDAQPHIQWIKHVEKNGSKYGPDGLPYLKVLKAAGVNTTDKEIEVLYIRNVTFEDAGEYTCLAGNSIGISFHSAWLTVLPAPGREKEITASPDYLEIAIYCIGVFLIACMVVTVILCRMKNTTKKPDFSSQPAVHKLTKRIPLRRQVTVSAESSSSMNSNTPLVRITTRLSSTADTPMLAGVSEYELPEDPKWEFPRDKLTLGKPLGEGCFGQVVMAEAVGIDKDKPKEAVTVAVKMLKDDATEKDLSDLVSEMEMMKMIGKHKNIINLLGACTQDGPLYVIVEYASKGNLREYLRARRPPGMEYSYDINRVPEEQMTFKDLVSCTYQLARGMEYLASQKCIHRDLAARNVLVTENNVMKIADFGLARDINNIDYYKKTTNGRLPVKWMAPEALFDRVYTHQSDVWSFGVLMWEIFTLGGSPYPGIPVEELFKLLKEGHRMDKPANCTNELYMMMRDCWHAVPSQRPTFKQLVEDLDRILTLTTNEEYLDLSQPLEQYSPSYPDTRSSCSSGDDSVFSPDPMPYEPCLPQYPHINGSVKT
Experiment: Transcreener Kinase Assay of FGFR2
Assay type: biochemical
Settings: read-out: FGFR2 (FP) IC50
pIC50: −log10 of the molar value.
property.name: pIC50

CNC(=O)c1cc(COc2cnc(Nc3ccc(S(C)(=O)=O)cc3)nc2)c(F)c(OC)c1 [Compound 226]	8.00
CNC(=O)c1cc(COc2cnc(Nc3cnn(C[C@H]4COC(C)(C)O4)c3)nc2)c(F)c(OC)c1 [Compound 249]	7.85
CCN1CCc2cc(Nc3ncc(OCc4cc(C(=O)NC)cc(OC)c4F)cn3)ccc21 [Compound 224]	7.57

[1] CCN1CCC(c2ccc(Nc3ncc(OCc4cc(C(=O)NC)cc(OC)c4F)cn3)cn2)CC1 [Compound 256]
[2] CNC(=O)c1cc(CCc2cnc(Nc3cnn(CC(F)(F)F)c3)nc2)c(F)c(OC)c1 [Compound 35]
[3] CNC(=O)c1cc(COc2cnc(Nc3ccc([C@H]4CCCNC4)nc3)nc2)c(Cl)c(OC)c1 [Compound 245]
[4] CCN1CC[C@H](n2cc(Nc3ncc(CCc4cc(C(=O)NC)cc(OC)c4F)cn3)cn2)C1 [Compound 191]
[5] CNC(=O)c1cc(COc2cnc(Nc3ccc(N4CCN(C)CC4)nc3)nc2)c(Cl)c(OC)c1 [Compound 263]
// query Let's sort these by pIC50, smallest first. Go ahead? Reply: labels, ordered per the request.
// result 4, 1, 3, 2, 5

[a] CNC(=O)c1cc(COc2cnc(Nc3ccc(=O)n(C4CCCC4)c3)nc2)c(F)c(OC)c1 [Compound 237]
[b] CNC(=O)c1cc(COc2cnc(Nc3ccc(OC)c(N4CCN(C)CC4)c3)nc2)c(F)c(OC)c1 [Compound 270]
// query Hey, which is lower on measured pIC50, a or b ? Refer to your chosen item by its label in the answer.
// result a

---

Biological target: Recombinant human FGFR1 (Homo sapiens)
Experiment: Transcreener Kinase Assay of FGFR1
Format: biochemical
Conditions: FP
property.name: IC50 (nM)

Illustrative cases are given below, each with its answer.
CNC(=O)c1cc(COc2cnc(Nc3ccc(N4CCN(C5CC5)CC4)c(OC)c3)nc2)c(F)c(OC)c1	14
CNC(=O)c1cc(COc2cnc(Nc3cccc(CCN4CCN(CCOC)CC4)c3)nc2)c(F)c(OC)c1	9

[P] CCN1CCN(c2ccc(Nc3ncc(OCc4cc(C(=O)NC)cc(OC)c4F)cn3)cc2OC)CC1
[Q] CNC(=O)c1cc(COc2cnc(Nc3ccc([C@H]4CCCN(C(C)=O)C4)nc3)nc2)c(Cl)c(OC)c1
// query Hi, I'm comparing P with Q and wondering which one has the bigger number for IC50. Any idea? Refer to your chosen item by its label in the answer.
// result Q

---

Molecular target: FGFR3 kinase (Homo sapiens, UniProt P22607)
Assay: Z-Lyte Kinase Assay of FGFR3
Type: biochemical
pIC50: −log10 of the molar value.
property.name: pIC50

CNC(=O)c1cc(COc2cnc(Nc3ccc(C(C)=O)cc3)nc2)c(F)c(OC)c1 [Compound 215]	7.19

[A] CNC(=O)c1cc(COc2cnc(Nc3cnn(C[C@H]4COC(C)(C)O4)c3)nc2)c(F)c(OC)c1 [Compound 249]
[B] CNC(=O)c1cc(COc2cnc(Nc3ccc(-n4cncn4)cc3)nc2)c(F)c(OC)c1 [Compound 221]
// query Hi, I'm comparing A with B and wondering which one has the bigger number for pIC50. Any idea? Refer to your chosen item by its label in the answer.
// result A

[A] CCN(CC)CCn1cc(Nc2ncc(OCc3c(F)c(OC)cc(C(=O)NC)c3F)cn2)cn1 [Compound 251]
[B] CNC(=O)c1cc(COc2cnc(Nc3ccc(N4C[C@@H](C)N(C)[C@@H](C)C4)cc3)nc2)c(F)c(OC)c1 [Compound 267]
// query Hey, which is lower on measured pIC50, A or B ? Refer to your chosen item by its label in the answer.
// result A
(A: 7.62, B: 8.10)

[P] CNC(=O)c1cc(OC)c(F)c(COc2cnc(Nc3cccc(N4C[C@@H](C)N[C@@H](C)C4)c3)nc2)c1F [Compound 275]
[Q] CNC(=O)c1cc(CCc2cnc(Nc3ccc(O)cc3)nc2)c(Cl)c(OC)c1 [Compound 81]
// query Hey, which is lower on measured pIC50, P or Q ? Refer to your chosen item by its label in the answer.
// result Q

[P] CNC(=O)c1cc(COc2cnc(Nc3ccc(C4CCNCC4)c(OC)c3)nc2)c(F)c(OC)c1 [Compound 258]
[Q] CNC(=O)c1cc(CCc2cnc(Nc3ccc(NC[C@@H](C)N)cc3)nc2)c(Cl)c(OC)c1 [Compound 92]
// query Hi, I'm comparing P with Q and wondering which one has the bigger number for pIC50. Any idea? Refer to your chosen item by its label in the answer.
// result Q
(Q: 8.00, P: 7.77)

---

Tested on: KG-1
Assay: Cellular Proliferation Assay (Cell Counting Kit-8), KG-1
Format: cell-based
Conditions: Homo sapiens; KG-1 cells, 72 hours; read-out: KG1 IC50
property.name: pIC50
Give only the number. pIC50 is defined as minus log10 of concentration in molar units.

Illustrative cases are given below, each with its answer.
CNC(=O)c1cc(CCc2cnc(Nc3cnn(C[C@H](C)O)c3)nc2)c(Cl)c(OC)c1	7.52
CNC(=O)c1cc(CCc2cnc(Nc3ccc(NC[C@@H](C)N)cc3)nc2)c(Cl)c(OC)c1	7.05
CNC(=O)c1cc(CCc2cnc(Nc3ccc(N4C[C@@H](C)N(C)[C@@H](C)C4)cc3)nc2)c(F)c(OC)c1	8.10

// query # get_value(readout='pIC50', item= CNC(=O)c1cc(OC)c(Cl)c(COc2cnc(Nc3ccc(N4C[C@@H](C)N[C@@H](C)C4)cc3)nc2)c1F )
// result 8.22

// query # iterate: CNC(=O)c1cc(CCc2cnc(Nc3cnn([C@@H]4CCOC4)c3)nc2)c(F)c(OC)c1
// result 7.54

// query # iterate: CNC(=O)c1cc(CCc2cnc(Nc3ccc(N4C[C@@H](C)N(C)[C@@H](C)C4)nc3)nc2)c(Cl)c(OC)c1
// result 7.80

// query # iterate: CNC(=O)c1cc(COc2cnc(Nc3cnc(N4C[C@@H](C)N[C@@H](C)C4)c(C)c3)nc2)c(Cl)c(OC)c1
// result 7.27

// query # iterate: CNC(=O)c1cc(COc2cnc(Nc3ccc(=O)n(C4CCCC4)c3)nc2)c(F)c(OC)c1
// result 7.10

// query # iterate: CNC(=O)c1cc(CCc2cnc(Nc3ccc(N4CCN(C)CC4)c(OC)c3)nc2)c(Cl)c(OC)c1
// result 7.96

// query # iterate: CNC(=O)c1cc(COc2cnc(Nc3cccc(-n4nccn4)c3)nc2)c(Cl)c(OC)c1
// result 7.15

// query # iterate: CNC(=O)c1cc(COc2cnc(Nc3ccc(N4C[C@@H](C)N(C)[C@@H](C)C4)cc3)nc2)c(F)c(OC)c1
// result 7.55

// query # iterate: CNC(=O)c1cc(COc2cnc(Nc3ccc4c(c3)NC(=O)C4(C)C)nc2)c(F)c(OC)c1
// result 7.12

// query # iterate: CCN1CCC(c2ccc(Nc3ncc(OCc4cc(C(=O)NC)cc(OC)c4F)cn3)cc2)CC1
// result 7.55

// query # iterate: CNC(=O)c1cc(COc2cnc(Nc3ccc4c(c3)NCC4)nc2)c(F)c(OC)c1
// result 8.22

// query # iterate: CNC(=O)c1cc(COc2cnc(Nc3ccc(N4C[C@@H](C)N(C)[C@@H](C)C4)nc3)nc2)c(F)c(OC)c1
// result 7.77

// query # iterate: CNC(=O)c1cc(COc2cnc(Nc3ccc(C4CCNCC4)cc3)nc2)c(F)c(OC)c1
// result 7.24
